- System Under Test: human CXCR3 (N-delta 4) (Homo sapiens)
- Construct: CD8 leader (N); Flag tag; expressed in transfected cells; membrane preparation
- Sequence (P49682 5-368 limits assumed): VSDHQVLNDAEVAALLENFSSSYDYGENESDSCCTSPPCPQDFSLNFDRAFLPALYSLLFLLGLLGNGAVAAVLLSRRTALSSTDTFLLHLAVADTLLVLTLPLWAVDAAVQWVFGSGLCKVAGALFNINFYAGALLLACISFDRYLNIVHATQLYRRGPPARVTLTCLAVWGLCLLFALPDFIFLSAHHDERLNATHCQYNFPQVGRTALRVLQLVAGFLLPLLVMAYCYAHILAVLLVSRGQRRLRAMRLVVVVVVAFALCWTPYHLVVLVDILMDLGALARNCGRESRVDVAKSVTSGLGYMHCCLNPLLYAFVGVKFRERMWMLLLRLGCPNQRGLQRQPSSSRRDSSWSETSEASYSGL
- Experimental Protocol: Human CXCR3 (N-delta 4) scintillation proximity assay (SPA), [125I] IP-10 binding to Ba/F3-hCXCR3 membranes
- Test Conditions: IC50 rating; [125I] IP-10 displacement, human CXCR3; read-out: IC50
Outcome Measure: IC50

                                    compound        result
 0  CC[C@H]1CN(c2ncc(Nc3c(C(C)C)c(=O)c3=O)cc2Cl)CCN1C1CCN(Cc2ccc(Cl)cc2F)CC1       < 25 nM
 1  CC[C@H]1CN(c2ncc([N+](=O)[O-])cc2Cl)CCN1C1CCN(Cc2ccc(Cl)cc2-c2nnc[nH]2)CC1      > 100 nM
 2  CC[C@H]1CN(c2nc(N)c(N)nc2Cl)CCN1C1CCN(Cc2ccc(Cl)cc2F)CC1      > 100 nM
 3  COC(=O)c1ccc(CN2CCC(N3C[C@H](C)N(c4ncc(Nc5c(NCC(F)(F)F)c(=O)c5=O)cc4Cl)C[C@H]3C)CC2)cc1      > 100 nM
 4  C[C@@H]1CN(C2CCN(Cc3ccc(Cl)cc3F)CC2)[C@@H](C)CN1c1ncc(Nc2c(NCC(F)(F)F)c(=O)c2=O)cc1Cl [Compound 104]  25 to 100 nM
 5  CC[C@H]1CN(c2ncc(NS(C)(=O)=O)cc2Cl)CCN1C1CCN(Cc2c(F)cc(F)cc2F)CC1      > 100 nM
 6  CC[C@H]1CN(c2ncc(NS(C)(=O)=O)cc2Cl)CCN1C1CCN(C(=O)c2ccc(Cl)c(Cl)c2)CC1      > 100 nM
 7  Cc1cc(Nc2c(NCC(F)(F)F)c(=O)c2=O)cnc1N1C[C@@H](C)N(C2CCN(C(=O)c3c(C)noc3C)CC2)C[C@@H]1C      > 100 nM
 8  CC[C@H]1CN(c2ncc(Nc3c(NC4CC4)c(=O)c3=O)cc2Cl)CCN1C1CCN(Cc2ccc(Cl)cc2C(=O)OC)CC1       < 25 nM
 9  CC[C@H]1CN(c2ncc(Nc3c(NCC(F)(F)F)c(=O)c3=O)cc2Cl)CCN1C1CCN(Cc2ccc(Cl)cc2F)CC1       < 25 nM
10  C[C@@H]1CN(C2CCN(Cc3ccc(Cl)cc3F)CC2)[C@@H](C)CN1c1ncc(Nc2c(NCC(F)(F)F)c(=O)c2=O)cc1Cl [Compound 92]       < 25 nM
11  CC[C@H]1CN(c2ncc(NS(C)(=O)=O)cc2Cl)CCN1C1CCN(Cc2ccc(OC)cc2OC)CC1       < 25 nM
12  CCCCNC1=NS(=O)(=O)N=C1Nc1cnc(N2CCN(C3CCN(Cc4ccc(Cl)cc4C(=N)NO)CC3)[C@@H](CC)C2)c(Cl)c1       < 25 nM
13  CC[C@H]1CN(c2ncc(N/C(=N/C#N)NCCO)cc2Cl)CCN1C1CCN(Cc2ccc(Cl)cc2F)CC1      > 100 nM
14  C[C@@H]1CN(c2ncc(Nc3c(NCC(F)(F)F)c(=O)c3=O)cc2Cl)[C@@H](C)CN1C1CCN(Cc2cccc3c2OCO3)CC1      > 100 nM
